Attribution: patent US20250281611A1

# target under test: T1, CD19 (UniProt P15391 20-556, limits assumed)
# T1 construct: whole, on cells; also called CD19 on JeKo-1
# T1 sequence (looked up): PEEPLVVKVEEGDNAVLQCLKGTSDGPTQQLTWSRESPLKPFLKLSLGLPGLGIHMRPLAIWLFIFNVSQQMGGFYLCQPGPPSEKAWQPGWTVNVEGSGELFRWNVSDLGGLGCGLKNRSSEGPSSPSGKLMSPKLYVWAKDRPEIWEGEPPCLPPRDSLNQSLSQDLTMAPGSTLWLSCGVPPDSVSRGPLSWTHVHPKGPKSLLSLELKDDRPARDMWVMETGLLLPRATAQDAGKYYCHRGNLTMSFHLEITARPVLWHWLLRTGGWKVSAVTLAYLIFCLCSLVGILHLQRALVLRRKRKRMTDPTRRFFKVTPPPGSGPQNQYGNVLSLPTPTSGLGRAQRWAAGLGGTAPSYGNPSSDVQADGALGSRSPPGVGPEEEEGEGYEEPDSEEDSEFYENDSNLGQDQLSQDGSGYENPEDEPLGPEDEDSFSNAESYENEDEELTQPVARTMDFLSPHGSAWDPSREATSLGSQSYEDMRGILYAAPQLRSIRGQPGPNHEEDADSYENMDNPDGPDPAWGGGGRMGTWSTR
# assay notes: flow cytometry, JeKo-1 cells, BIL03s-AF647 detection, MFI over no-bridge control
property name: MFIR BIL03 AF647

binder	reported value
CD19 BRIDGE variant B13 (Fab, V domains shown) VH: EVQLVESGGGLVKPGGSLKLSCAASGYTFTSYVMHWVRQAPGKGLEWIGYINPYNDGTKYNEKFQGRVTISSDKSISTAYMELSSLRSEDTAMYYCARGTYYYGTRVFDYWGQGTLVTVSS VL: DIVMTQSPATLSLSPGERATLSCRSSKSLQNVNGNTYLYWFQQKPGQSPQLLIYRMSNLNSGVPDRFSGSGSGTEFTLTISSLEPEDFAVYYCMQHLEYPITFGAGTKLEIKR	11.5
